Reference for the values: ChEMBL document CHEMBL1139341

- Study System: Somatostatin receptor type 2 (Homo sapiens)
- Sequence (P30874 whole entry): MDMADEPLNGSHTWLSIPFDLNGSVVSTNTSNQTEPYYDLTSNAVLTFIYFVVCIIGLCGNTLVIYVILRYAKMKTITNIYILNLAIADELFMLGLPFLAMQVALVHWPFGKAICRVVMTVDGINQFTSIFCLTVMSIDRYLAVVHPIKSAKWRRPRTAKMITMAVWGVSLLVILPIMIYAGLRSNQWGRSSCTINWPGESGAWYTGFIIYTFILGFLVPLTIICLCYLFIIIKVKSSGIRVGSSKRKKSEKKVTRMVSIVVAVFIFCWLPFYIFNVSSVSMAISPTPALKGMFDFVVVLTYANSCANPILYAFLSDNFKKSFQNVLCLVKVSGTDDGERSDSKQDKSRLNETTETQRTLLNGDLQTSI
- Protocol Details: Displacement of [125I]-[Leu8, DTrp22, Tyr25]-somatostatin-28 from human recombinant sst2 receptor expressed in chinese hamster CCL39 cells
Returns: string. Value is y if measured IC50 is below 100 nM, and n if it is greater than or equal to it.

{"columns": ["Compound Structure String", "Study System", "Assigned Class"],
 "data": [
  ["NCCCC[C@@H](C(=O)NCc1ccccc1)N1Cc2[nH]c3ccccc3c2C[C@@H](NC(=O)N2CCN(S(=O)(=O)c3ccccc3)CC2)C1=O", "Somatostatin receptor type 2 (Homo sapiens)", "y"],
  ["CC(=O)N[C@@H]1Cc2c([nH]c3ccccc23)CN([C@@H](CCCCN)C(=O)NCCc2ccccc2)C1=O", "Somatostatin receptor type 2 (Homo sapiens)", "n"],
  ["CS(=O)(=O)N1CC2(CCN(C(=O)N[C@@H]3Cc4c([nH]c5ccccc45)CN([C@@H](CCCCN)C(=O)NCc4ccccc4)C3=O)CC2)c2ccccc21", "Somatostatin receptor type 2 (Homo sapiens)", "n"],
  ["NCCCC[C@@H](C(=O)NCc1cccc2ccccc12)N1Cc2[nH]c3ccccc3c2C[C@@H](NC(=O)Cc2ccccc2)C1=O", "Somatostatin receptor type 2 (Homo sapiens)", "n"],
  ["NCCCC[C@@H](C(=O)NCc1ccccc1)N1Cc2[nH]c3ccccc3c2C[C@@H](NC(=O)c2ccc(Cl)cc2)C1=O", "Somatostatin receptor type 2 (Homo sapiens)", "y"],
  ["NCCCC[C@@H](C(=O)NCc1ccccc1)N1Cc2[nH]c3ccccc3c2C[C@@H](NC(=O)CCc2ccccc2)C1=O", "Somatostatin receptor type 2 (Homo sapiens)", "y"],
  ["NCCCC[C@@H](C(=O)NCc1ccccc1)N1Cc2[nH]c3ccccc3c2C[C@@H](NC(=O)N2CCC(n3c(=O)[nH]c4ccccc43)CC2)C1=O", "Somatostatin receptor type 2 (Homo sapiens)", "y"],
  ["NCCCC[C@@H](C(=O)NCc1ccccc1)N1Cc2[nH]c3ccccc3c2C[C@@H](NC(=O)N2CCC3(CCc4ccccc43)CC2)C1=O", "Somatostatin receptor type 2 (Homo sapiens)", "y"],
  ["COC(=O)[C@H](CCCCN)N1Cc2[nH]c3ccccc3c2C[C@@H](NC(=O)Cc2ccccc2)C1=O", "Somatostatin receptor type 2 (Homo sapiens)", "n"],
  ["NCCCC[C@@H](C(=O)NCc1ccccc1)N1Cc2[nH]c3ccccc3c2C[C@@H](NC(=O)c2ccc(-c3ccccc3)cc2)C1=O", "Somatostatin receptor type 2 (Homo sapiens)", "y"],
  ["NCCCC[C@@H](C(=O)NCc1ccccc1)N1Cc2[nH]c3ccccc3c2C[C@@H](NC(=O)C2CCN(C(=O)c3ccccc3)CC2)C1=O", "Somatostatin receptor type 2 (Homo sapiens)", "y"],
  ["NCCCC[C@H](C(=O)NCc1ccccc1)N1Cc2[nH]c3ccccc3c2C[C@@H](NC(=O)Cc2ccccc2)C1=O", "Somatostatin receptor type 2 (Homo sapiens)", "n"],
  ["C[C@@H](NC(=O)[C@H](CCCCN)N1Cc2[nH]c3ccccc3c2C[C@@H](NC(=O)Cc2ccccc2)C1=O)c1ccccc1", "Somatostatin receptor type 2 (Homo sapiens)", "n"],
  ["NCCCC[C@@H](C(=O)NCCc1ccccc1)N1Cc2[nH]c3ccccc3c2C[C@@H](NC(=O)Cc2ccccc2)C1=O", "Somatostatin receptor type 2 (Homo sapiens)", "n"],
  ["C[C@H](NC(=O)[C@H](CCCCN)N1Cc2[nH]c3ccccc3c2C[C@@H](NC(=O)Cc2ccccc2)C1=O)c1ccccc1", "Somatostatin receptor type 2 (Homo sapiens)", "n"],
  ["NCCCC[C@@H](C(=O)NCc1ccccc1)N1Cc2[nH]c3ccccc3c2C[C@@H](NC(=O)C(c2ccccc2)c2ccccc2)C1=O", "Somatostatin receptor type 2 (Homo sapiens)", "n"],
  ["CC(=O)N[C@@H]1Cc2c([nH]c3ccccc23)CN([C@@H](CCCCN)C(=O)NCc2ccccc2)C1=O", "Somatostatin receptor type 2 (Homo sapiens)", "n"]
]}

###

# IC50 per entry
- Study System: Somatostatin receptor type 4 (Homo sapiens, UniProt P31391)
- Sequence (P31391 whole entry): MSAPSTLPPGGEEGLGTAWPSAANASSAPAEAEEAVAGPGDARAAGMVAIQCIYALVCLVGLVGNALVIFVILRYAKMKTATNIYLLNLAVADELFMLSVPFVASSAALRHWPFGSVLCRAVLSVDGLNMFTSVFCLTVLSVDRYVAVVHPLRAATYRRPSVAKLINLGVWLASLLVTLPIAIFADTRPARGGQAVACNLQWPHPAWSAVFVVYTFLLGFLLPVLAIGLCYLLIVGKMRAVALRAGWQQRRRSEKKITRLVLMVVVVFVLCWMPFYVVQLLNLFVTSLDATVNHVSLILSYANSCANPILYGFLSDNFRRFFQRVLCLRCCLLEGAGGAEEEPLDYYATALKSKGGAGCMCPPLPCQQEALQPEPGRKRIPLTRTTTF
- Protocol Details: Displacement of [125I]-[Leu8, DTrp22, Tyr25]-somatostatin-28 from human recombinant sst4 receptor expressed in chinese hamster CCL39 cells

{"columns": ["Compound Structure String", "Study System", "IC50 [nM]"],
 "data": [
  ["NCCCC[C@@H](C(=O)NCc1ccccc1)N1Cc2[nH]c3ccccc3c2C[C@@H](NC(=O)N2CCC3(CCc4ccccc43)CC2)C1=O", "Somatostatin receptor type 4 (Homo sapiens, UniProt P31391)", 35],
  ["CS(=O)(=O)N1CC2(CCN(C(=O)N[C@@H]3Cc4c([nH]c5ccccc45)CN([C@@H](CCCCN)C(=O)NCc4ccccc4)C3=O)CC2)c2ccccc21", "Somatostatin receptor type 4 (Homo sapiens, UniProt P31391)", 2.1],
  ["NCCCC[C@@H](C(=O)NCc1ccccc1)N1Cc2[nH]c3ccccc3c2C[C@@H](NC(=O)c2ccc(Cl)cc2)C1=O", "Somatostatin receptor type 4 (Homo sapiens, UniProt P31391)", 2.3]
]}

###

- Organism: Homo sapiens
- Protocol Details: Selectivity for human recombinant sst5 receptor over human recombinant sst4 receptor
Starred links: 1 amine or outer side, 2 acyl side, 3 side chain; linkers in the order of their positions; H or OH if unused. Positions of bridges follow the written chain, without caps; N, C: chain ends. Non-standard residues stand in square brackets, D forms with d. Residues, ends and D or L forms follow the SMILES beside them. Phe(Nα-(CH2)3CO) = O=C([C@H](Cc1ccccc1)N(CCCC(=O)[*:3])[*:1])[*:2]; N(2-aminoethyl)Phe = O=C([C@H](Cc1ccccc1)N(CCN[*:3])[*:1])[*:2]

{"columns": ["Molecule", "fold change (FC)"],
 "data": [
  ["NCc1cccc(C[C@@H]2O[C@@H](CC(=O)NCc3ccccc3F)C(=O)N(Cc3ccc(-c4ccccc4)cc3)c3ccccc32)c1", 200],
  ["C[C@@H](O)[C@@H](CO)NC(=O)[C@@H]1C/C=C/C[C@H](NC(=O)[C@H](N)Cc2ccccc2)C(=O)N[C@@H](Cc2ccccc2)C(=O)N[C@H](Cc2c[nH]c3ccccc23)C(=O)N[C@@H](CCCCN)C(=O)N[C@@H](Cc2ccc(OCc3ccccc3)cc2)C(=O)N1", 24],
  ["CC(C)[C@@H]1NC(=O)[C@H](CCCCN)NC(=O)[C@H](Cc2c[nH]c3ccccc23)NC(=O)[C@H](Cc2ccc(O)cc2)NC(=O)[C@H](Cc2ccccc2)NCCNC(=O)CCCN([C@@H](Cc2ccccc2)C(=O)N[C@H](C(N)=O)[C@@H](C)O)C1=O (H-[N(2-aminoethyl)Phe]YWKV[Phe(Nα-(CH2)3CO)]T-NH2; lactam 1-6)", 24],
  ["CC(=O)N[C@@H]1Cc2c([nH]c3ccccc23)CN([C@@H](CCCCN)C(=O)NCCc2ccccc2)C1=O", 10]
]}

###

- Study System: Somatostatin receptor type 3 (Homo sapiens, UniProt P32745)
- Sequence (P32745 whole entry): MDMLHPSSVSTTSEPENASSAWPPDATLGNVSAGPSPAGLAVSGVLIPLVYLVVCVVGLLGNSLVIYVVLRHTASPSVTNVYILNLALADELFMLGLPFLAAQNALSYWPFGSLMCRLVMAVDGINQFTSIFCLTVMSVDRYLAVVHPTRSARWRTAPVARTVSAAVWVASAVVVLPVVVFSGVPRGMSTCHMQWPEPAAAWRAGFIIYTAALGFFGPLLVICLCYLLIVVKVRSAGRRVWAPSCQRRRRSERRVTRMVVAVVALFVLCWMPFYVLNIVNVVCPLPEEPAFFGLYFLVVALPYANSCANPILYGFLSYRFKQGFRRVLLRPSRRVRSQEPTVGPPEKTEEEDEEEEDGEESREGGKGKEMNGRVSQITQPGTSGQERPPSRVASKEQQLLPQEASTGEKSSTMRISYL
- Protocol Details: Displacement of [125I]-[Leu8, DTrp22, Tyr25]-somatostatin-28 from human recombinant sst3 receptor expressed in chinese hamster CCL39 cells
pIC50: −log10 of the molar value.
# pIC50 per entry

{"columns": ["Compound Structure String", "Comparison Symbol", "pIC50"],
 "data": [
  ["C[C@H](NC(=O)[C@H](CCCCN)N1Cc2[nH]c3ccccc3c2C[C@@H](NC(=O)Cc2ccccc2)C1=O)c1ccccc1", "=", 6.52],
  ["NCCCC[C@@H](C(=O)NCc1ccccc1)N1Cc2[nH]c3ccccc3c2C[C@@H](NC(=O)CCc2ccccc2)C1=O", "=", 6.82],
  ["NCCCC[C@@H](C(=O)NCc1ccccc1)N1Cc2[nH]c3ccccc3c2C[C@@H](NC(=O)c2ccc(Cl)cc2)C1=O", "=", 6.79],
  ["CS(=O)(=O)N1CC2(CCN(C(=O)N[C@@H]3Cc4c([nH]c5ccccc45)CN([C@@H](CCCCN)C(=O)NCc4ccccc4)C3=O)CC2)c2ccccc21", "=", 6.50],
  ["CC(=O)N[C@@H]1Cc2c([nH]c3ccccc23)CN([C@@H](CCCCN)C(=O)NCc2ccccc2)C1=O", "<", 6.00],
  ["NCCCC[C@@H](C(=O)NCc1ccccc1)N1Cc2[nH]c3ccccc3c2C[C@@H](NC(=O)C(c2ccccc2)c2ccccc2)C1=O", "<", 6.30],
  ["NCCCC[C@H](C(=O)NCc1ccccc1)N1Cc2[nH]c3ccccc3c2C[C@@H](NC(=O)Cc2ccccc2)C1=O", "=", 6.04],
  ["NCCCC[C@@H](C(=O)NCc1ccccc1)N1Cc2[nH]c3ccccc3c2C[C@@H](NC(=O)N2CCC(n3c(=O)[nH]c4ccccc43)CC2)C1=O", "=", 8.41],
  ["CC(=O)N[C@@H]1Cc2c([nH]c3ccccc23)CN([C@@H](CCCCN)C(=O)NCCc2ccccc2)C1=O", "=", 6.29],
  ["NCCCC[C@@H](C(=O)NCc1ccccc1)N1Cc2[nH]c3ccccc3c2C[C@@H](NC(=O)c2ccccc2)C1=O", "=", 6.74],
  ["NCCCC[C@@H](C(=O)NCc1ccccc1)N1Cc2[nH]c3ccccc3c2C[C@@H](NC(=O)N2CCC3(CCc4ccccc43)CC2)C1=O", "=", 8.04]
]}
